Target: Ascaris suum succinate-ubiquinone reductase (mitochondrial complex II) (Ascaris suum, UniProt O44074+P92506+P92507)
Construct: from tissue; host or cells: mitochondria from adult Ascaris suum muscle
Sequence (O44074 22-282): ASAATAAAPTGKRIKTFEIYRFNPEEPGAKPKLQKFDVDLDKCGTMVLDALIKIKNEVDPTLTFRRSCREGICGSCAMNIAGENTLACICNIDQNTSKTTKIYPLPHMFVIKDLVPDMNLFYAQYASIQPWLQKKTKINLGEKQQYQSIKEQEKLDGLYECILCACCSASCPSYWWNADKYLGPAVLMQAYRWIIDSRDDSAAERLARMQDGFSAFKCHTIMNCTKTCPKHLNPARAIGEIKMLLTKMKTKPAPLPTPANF
Sequence (P92506 32-188): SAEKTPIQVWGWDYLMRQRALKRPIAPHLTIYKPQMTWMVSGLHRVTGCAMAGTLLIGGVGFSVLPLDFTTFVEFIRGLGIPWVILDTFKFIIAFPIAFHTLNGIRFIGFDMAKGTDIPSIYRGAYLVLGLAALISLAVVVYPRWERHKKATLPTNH
Sequence (P92507 26-156): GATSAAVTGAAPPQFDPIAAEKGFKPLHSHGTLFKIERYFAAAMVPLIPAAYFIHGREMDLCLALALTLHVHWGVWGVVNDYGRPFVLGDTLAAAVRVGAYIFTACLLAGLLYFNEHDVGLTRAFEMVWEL
Sequence (Q33862 19-645 partner): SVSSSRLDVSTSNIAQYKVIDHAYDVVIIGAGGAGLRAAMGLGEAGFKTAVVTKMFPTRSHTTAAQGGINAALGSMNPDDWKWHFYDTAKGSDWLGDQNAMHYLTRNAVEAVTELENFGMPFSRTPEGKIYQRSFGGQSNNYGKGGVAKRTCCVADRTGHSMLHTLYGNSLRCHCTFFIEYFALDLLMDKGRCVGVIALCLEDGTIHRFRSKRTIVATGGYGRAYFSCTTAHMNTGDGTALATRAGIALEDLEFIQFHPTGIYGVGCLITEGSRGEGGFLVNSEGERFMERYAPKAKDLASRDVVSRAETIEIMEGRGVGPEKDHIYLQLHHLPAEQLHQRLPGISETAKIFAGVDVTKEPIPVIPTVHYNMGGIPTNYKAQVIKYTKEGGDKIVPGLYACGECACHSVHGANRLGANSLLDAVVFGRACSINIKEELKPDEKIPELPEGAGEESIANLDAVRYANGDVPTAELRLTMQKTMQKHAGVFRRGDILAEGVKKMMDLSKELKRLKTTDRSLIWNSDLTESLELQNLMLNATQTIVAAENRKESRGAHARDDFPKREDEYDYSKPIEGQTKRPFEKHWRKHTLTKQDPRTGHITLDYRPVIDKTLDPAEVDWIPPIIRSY
Assay: In vitro inhibitory activity on Ascaris suum succinate-ubiquinone reductase (mitochondrial complex II)
Type: biochemical
Settings: porcine IC50 (B) / Ascaris suum IC50 (A)
I'd be grateful if you could share measured Selectivity B/A for these entries.

Data request: Quick one: Selectivity B/A of Cc1cc(CNC(=O)c2ccccc2C(F)(F)F)ccc1-c1ccc(OC(F)(F)F)cc1 ?
Data returned: >2350

Data request: How about CC(Cc1ccc(F)cc1F)NC(=O)c1ccccc1C(F)(F)F (centres unmarked) ?
Data returned: >9150

Data request: How about O=C(NCCc1ccc(Cl)cc1Cl)c1ccccc1C(F)(F)F ?
Data returned: >74400

Data request: How about O=C(NCCCSc1ccc(Cl)cc1Cl)c1ccccc1C(F)(F)F ?
Data returned: >1079

Data request: How about CC(C)(CNC(=O)c1ccccc1C(F)(F)F)c1ccc(Cl)cc1Cl ?
Data returned: >60000

Data request: How about CC(C)(C)c1ccc(CNC(=O)c2ccccc2C(F)(F)F)cc1 ?
Data returned: 20295

Data request: How about O=C(NC(c1ccc(Cl)cc1)C1CC1)c1ccccc1C(F)(F)F (centres unmarked) ?
Data returned: >1280

Data request: How about O=C(NCCCc1ccc(Cl)cc1Cl)c1ccccc1C(F)(F)F ?
Data returned: 57870

Data request: How about O=C(NCCc1ncc(C(F)(F)F)cc1Cl)c1ccccc1C(F)(F)F ?
Data returned: 56250

Data request: How about CC(Cc1ccc(Cl)cc1Cl)NC(=O)c1ccccc1C(F)(F)F (centres unmarked) ?
Data returned: >4190

Data request: How about O=C(NCc1ccc(Cl)cc1Cl)c1ccccc1C(F)(F)F ?
Data returned: >3180

This collection of values is drawn from patent US9447042B2.
